Reference for the values: ChEMBL document CHEMBL1255371

System: Streptococcus pneumoniae
Method Description: Antimicrobial activity against beta-lactam resistant Streptococcus pneumoniae clinical isolate by broth dilution method
Type: functional
Below, each entry is listed alongside its reported MIC90.
Readout: MIC90 (µg/mL)

[
  {
    "Compound": "CO/N=C(\\C(=O)N[C@@H]1C(=O)N2C(C(=O)O)=C(COC(C)=O)CS[C@H]12)c1csc(N)n1 [CEFOTAXIME]",
    "Recorded Measurement": 1
  },
  {
    "Compound": "CN[C@H](CC(C)C)C(=O)N[C@H]1C(=O)N[C@@H](CC(N)=O)C(=O)N[C@H]2C(=O)N[C@H]3C(=O)N[C@H](C(=O)N[C@H](C(=O)O)c4cc(O)cc(O)c4-c4cc3ccc4O)[C@H](O)c3ccc(c(Cl)c3)Oc3cc2cc(c3O[C@@H]2O[C@H](CO)[C@@H](O)[C@H](O)[C@H]2O[C@H]2C[C@](C)(N)[C@H](O)[C@H](C)O2)Oc2ccc(cc2Cl)[C@H]1O [VANCOMYCIN]",
    "Recorded Measurement": 0.5
  }
]
